System: Hs-578-T (Breast Carcinoma)
PROCEDURE_SUMMARY: combination Emax (second highest fraction inhibited in the dose matrix, 72 h); higher = more inhibition; extreme values may be limits of the assay
MEASURE_NAME: combination Emax

COMPOUND	MEASURE_NAME	OBSERVED_RESULT
Cc1cc2ncnn2cc1Nc1ncc2c(n1)n(C1CCOCC1)c(=O)n2C [AZD7648] + C=CCn1c(=O)c2cnc(Nc3ccc(N4CCN(C)CC4)cc3)nc2n1-c1cccc(C(C)(C)O)n1 [AZD1775] (first compound max 10 µM, partner max 1 µM)	combination Emax	0.77
CC1(C)CCC(CN2CCN(c3ccc(C(=O)NS(=O)(=O)c4ccc(NCC5CCOCC5)c([N+](=O)[O-])c4)c(Oc4cnc5[nH]ccc5c4)c3)CC2)=C(c2ccc(Cl)cc2)C1 [Venetoclax] + C1CN(CCC1(C(=O)N[C@@H](CCO)C2=CC=C(C=C2)Cl)N)C3=NC=NC4=C3C=CN4 [Capivasertib] (first compound max 1 µM, 7x7, partner max 3 µM)	combination Emax	0.812
CN(CCO)CC[C@H](CSc1ccccc1)Nc1ccc(S(=O)(=O)NC(=O)c2ccc(N3CCC([C@@H](O)c4ccccc4-c4ccc(Cl)cc4)CC3)cc2)cc1S(=O)(=O)C(F)(F)F [AZD4320] + C1CN(CCC1(C(=O)N[C@@H](CCO)C2=CC=C(C=C2)Cl)N)C3=NC=NC4=C3C=CN4 [Capivasertib] (first compound max 1 µM, 7x7, partner max 3 µM)	combination Emax	0.639
Cn1cnc2c(F)c(Nc3ccc(Br)cc3Cl)c(C(=O)NOCCO)cc21 [Selumetinib] + CCN(CCO)CCCOc1ccc2c(Nc3cc(CC(=O)Nc4cccc(F)c4)[nH]n3)ncnc2c1 [AZD2811] (first compound max 10 µM, 7x7, partner max 1 µM)	combination Emax	0.491
Cc1c2c(nn1C)CSCc1cc(n(C)n1)CSc1cc(c3ccccc3c1)OCCCc1c(C(=O)O)n(C)c3c-2c(Cl)ccc13 [AZD5991] + CN(C)CCCOc1ccc(-c2ccc3ncc4c(c3c2)n(C2CCOCC2)c(=O)n4C)cn1 [AZD0156] (first compound max 1 µM, 7x7, partner max 1 µM)	combination Emax	0.585
O=C(c1cc(Cc2n[nH]c(=O)c3ccccc23)ccc1F)N1CCN(C(=O)C2CC2)CC1 [Olaparib] + COc1nnc2ccc(N3CCC(c4ccc(OCCN5CCN(C)C(=O)[C@H]5C)cc4)CC3)nn12 [AZD5153] (first compound max 10 µM, 7x7, partner max 1 µM)	combination Emax	0.729
COc1nnc2ccc(N3CCC(c4ccc(OCCN5CCN(C)C(=O)[C@H]5C)cc4)CC3)nn12 [AZD5153] + CC1(C)CCC(CN2CCN(c3ccc(C(=O)NS(=O)(=O)c4ccc(NCC5CCOCC5)c([N+](=O)[O-])c4)c(Oc4cnc5[nH]ccc5c4)c3)CC2)=C(c2ccc(Cl)cc2)C1 [Venetoclax] (first compound max 1 µM, 7x7, partner max 1 µM)	combination Emax	0.761

====

Tested on: HT-1376 (Bladder Carcinoma)
PROCEDURE_SUMMARY: Bliss excess, mean over the matrix (fraction); higher = more synergy

COMPOUND	Bliss excess
CS(=O)(=O)CCNCc1ccc(-c2ccc3ncnc(Nc4ccc(OCc5cccc(F)c5)c(Cl)c4)c3c2)o1 [Lapatinib] + Cn1cnc2c(F)c(Nc3ccc(Br)cc3Cl)c(C(=O)NOCCO)cc21 [Selumetinib] (first compound max 10 µM, 7x7, partner max 10 µM)	0.0188
CN(CCO)CC[C@H](CSc1ccccc1)Nc1ccc(S(=O)(=O)NC(=O)c2ccc(N3CCC([C@@H](O)c4ccccc4-c4ccc(Cl)cc4)CC3)cc2)cc1S(=O)(=O)C(F)(F)F [AZD4320] + Cc1cc2ncnn2cc1Nc1ncc2c(n1)n(C1CCOCC1)c(=O)n2C [AZD7648] (first compound max 1 µM, 7x7, partner max 10 µM)	-0.17
CC(=O)c1c(C)c2cnc(Nc3ccc(N4CCNCC4)cn3)nc2n(C2CCCC2)c1=O [Palbociclib] + CC1(C)CCC(CN2CCN(c3ccc(C(=O)NS(=O)(=O)c4ccc(NCC5CCOCC5)c([N+](=O)[O-])c4)c(Oc4cnc5[nH]ccc5c4)c3)CC2)=C(c2ccc(Cl)cc2)C1 [Venetoclax] (first compound max 10 µM, 7x7, partner max 1 µM)	-0.0453
Cc1cc2ncnn2cc1Nc1ncc2c(n1)n(C1CCOCC1)c(=O)n2C [AZD7648] + COc1cc([C@@H]2c3cc4c(cc3[C@@H](O[C@@H]3O[C@@H]5CO[C@@H](C)O[C@H]5[C@H](O)[C@H]3O)[C@H]3COC(=O)[C@H]23)OCO4)cc(OC)c1O [Etoposide] (first compound max 10 µM, 7x7, partner max 10 µM)	-0.0021
CS(=O)(=O)CCNCc1ccc(-c2ccc3ncnc(Nc4ccc(OCc5cccc(F)c5)c(Cl)c4)c3c2)o1 [Lapatinib] + C[C@@H](Oc1cc(-c2cnn(C3CCNCC3)c2)cnc1N)c1c(Cl)ccc(F)c1Cl [Crizotinib] (first compound max 10 µM, 7x7, partner max 10 µM)	-0.0343
C=CCn1c(=O)c2cnc(Nc3ccc(N4CCN(C)CC4)cc3)nc2n1-c1cccc(C(C)(C)O)n1 [AZD1775] + Nc1ccn([C@@H]2O[C@H](CO)[C@@H](O)C2(F)F)c(=O)n1 [Gemcitabine] (first compound max 1 µM, partner max 0.3 µM)	-0.0432
CCc1c2c(nc3ccc(O)cc13)-c1cc3c(c(=O)n1C2)COC(=O)[C@]3(O)CC [SN-38] + CN(C)CCCOc1ccc(-c2ccc3ncc4c(c3c2)n(C2CCOCC2)c(=O)n4C)cn1 [AZD0156] (first compound max 0.3 µM, 7x7, partner max 1 µM)	-0.0547

====

Test system: DoTc2-4510 (Cervical Carcinoma)
PROCEDURE_SUMMARY: Bliss excess, mean over the matrix (fraction); higher = more synergy
# Bliss excess annotations
MEASURE_NAME: Bliss excess

COMPOUND	OBSERVED_RESULT
CC1(C)CCC(CN2CCN(c3ccc(C(=O)NS(=O)(=O)c4ccc(NCC5CCOCC5)c([N+](=O)[O-])c4)c(Oc4cnc5[nH]ccc5c4)c3)CC2)=C(c2ccc(Cl)cc2)C1 [Venetoclax] + C[C@@H](Nc1cc(F)cc(F)c1)c1cc(C(=O)N(C)C)cc2c(=O)cc(N3CCOCC3)oc12 [AZD8186] (first compound max 1 µM, 7x7, partner max 3 µM)	-0.0078
CN(C)CCCOc1ccc(-c2ccc3ncc4c(c3c2)n(C2CCOCC2)c(=O)n4C)cn1 [AZD0156] + O=C(c1cc(Cc2n[nH]c(=O)c3ccccc23)ccc1F)N1CCN(C(=O)C2CC2)CC1 [Olaparib] (first compound max 3 µM, partner max 3 µM)	-0.043
CCN(CCO)CCCOc1ccc2c(Nc3cc(CC(=O)Nc4cccc(F)c4)[nH]n3)ncnc2c1 [AZD2811] + O=C(c1cc(Cc2n[nH]c(=O)c3ccccc23)ccc1F)N1CCN(C(=O)C2CC2)CC1 [Olaparib] (first compound max 1 µM, 7x7, partner max 10 µM)	0.0035
CN(CCO)CC[C@H](CSc1ccccc1)Nc1ccc(S(=O)(=O)NC(=O)c2ccc(N3CCC([C@@H](O)c4ccccc4-c4ccc(Cl)cc4)CC3)cc2)cc1S(=O)(=O)C(F)(F)F [AZD4320] + CCN(CCO)CCCOc1ccc2c(Nc3cc(CC(=O)Nc4cccc(F)c4)[nH]n3)ncnc2c1 [AZD2811] (first compound max 1 µM, 7x7, partner max 1 µM)	0.114
CN(CCO)CC[C@H](CSc1ccccc1)Nc1ccc(S(=O)(=O)NC(=O)c2ccc(N3CCC([C@@H](O)c4ccccc4-c4ccc(Cl)cc4)CC3)cc2)cc1S(=O)(=O)C(F)(F)F [AZD4320] + C1CN(CCC1(C(=O)N[C@@H](CCO)C2=CC=C(C=C2)Cl)N)C3=NC=NC4=C3C=CN4 [Capivasertib] (first compound max 1 µM, 7x7, partner max 3 µM)	0.0501
Cn1cnc2c(F)c(Nc3ccc(Br)cc3Cl)c(C(=O)NOCCO)cc21 [Selumetinib] + CCN(CCO)CCCOc1ccc2c(Nc3cc(CC(=O)Nc4cccc(F)c4)[nH]n3)ncnc2c1 [AZD2811] (first compound max 10 µM, 7x7, partner max 1 µM)	-0.0098

====

Test system: UM-UC-3 (Bladder Carcinoma)
PROCEDURE_SUMMARY: Bliss excess, mean over the matrix (fraction); higher = more synergy
Returns true if the recorded Bliss excess is greater than or equal to 0.03, and false otherwise.

COMPOUND	DISCRETE_LABEL
C[C@@H](Nc1cc(F)cc(F)c1)c1cc(C(=O)N(C)C)cc2c(=O)cc(N3CCOCC3)oc12 [AZD8186] + C1CN(CCC1(C(=O)N[C@@H](CCO)C2=CC=C(C=C2)Cl)N)C3=NC=NC4=C3C=CN4 [AZD5363] (first compound max 10 µM, 7x7, partner max 10 µM)	true
CCc1c2c(nc3ccc(O)cc13)-c1cc3c(c(=O)n1C2)COC(=O)[C@]3(O)CC [SN-38] + O=C(c1cc(Cc2n[nH]c(=O)c3ccccc23)ccc1F)N1CCN(C(=O)C2CC2)CC1 [Olaparib] (first compound max 0.3 µM, 7x7, partner max 10 µM)	true
Cc1c2c(nn1C)CSCc1cc(n(C)n1)CSc1cc(c3ccccc3c1)OCCCc1c(C(=O)O)n(C)c3c-2c(Cl)ccc13 [AZD5991] + Cc1cc2ncnn2cc1Nc1ncc2c(n1)n(C1CCOCC1)c(=O)n2C [AZD7648] (first compound max 1 µM, 7x7, partner max 10 µM)	false
COc1nnc2ccc(N3CCC(c4ccc(OCCN5CCN(C)C(=O)[C@H]5C)cc4)CC3)nn12 [AZD5153] + CC1(C)CCC(CN2CCN(c3ccc(C(=O)NS(=O)(=O)c4ccc(NCC5CCOCC5)c([N+](=O)[O-])c4)c(Oc4cnc5[nH]ccc5c4)c3)CC2)=C(c2ccc(Cl)cc2)C1 [Venetoclax] (first compound max 1 µM, 7x7, partner max 1 µM)	false
Cc1cc2ncnn2cc1Nc1ncc2c(n1)n(C1CCOCC1)c(=O)n2C [AZD7648] + C=CCn1c(=O)c2cnc(Nc3ccc(N4CCN(C)CC4)cc3)nc2n1-c1cccc(C(C)(C)O)n1 [AZD1775] (first compound max 10 µM, partner max 1 µM)	false
CN(CCO)CC[C@H](CSc1ccccc1)Nc1ccc(S(=O)(=O)NC(=O)c2ccc(N3CCC([C@@H](O)c4ccccc4-c4ccc(Cl)cc4)CC3)cc2)cc1S(=O)(=O)C(F)(F)F [AZD4320] + CS(=O)(=O)CCNCc1ccc(-c2ccc3ncnc(Nc4ccc(OCc5cccc(F)c5)c(Cl)c4)c3c2)o1 [Lapatinib] (first compound max 1 µM, 7x7, partner max 10 µM)	false
CC1(C)CCC(CN2CCN(c3ccc(C(=O)NS(=O)(=O)c4ccc(NCC5CCOCC5)c([N+](=O)[O-])c4)c(Oc4cnc5[nH]ccc5c4)c3)CC2)=C(c2ccc(Cl)cc2)C1 [Venetoclax] + COc1cc(Nc2ncc3c(n2)-c2ccc(Cl)cc2C(c2c(F)cccc2OC)=NC3)ccc1C(=O)O [Alisertib] (first compound max 1 µM, 7x7, partner max 10 µM)	false
CN(C)CCCOc1ccc(-c2ccc3ncc4c(c3c2)n(C2CCOCC2)c(=O)n4C)cn1 [AZD0156] + C[C@@H]1COCCN1C2=NC(=NC(=C2)C3(CC3)[S@](=N)(=O)C)C4=C5C=CNC5=NC=C4 [AZD6738] (first compound max 1 µM, 7x7, partner max 10 µM)	false
COc1nnc2ccc(N3CCC(c4ccc(OCCN5CCN(C)C(=O)[C@H]5C)cc4)CC3)nn12 [AZD5153] + C[C@@H]1COCCN1C2=NC(=NC(=C2)C3(CC3)[S@](=N)(=O)C)C4=C5C=CNC5=NC=C4 [AZD6738] (first compound max 1 µM, 7x7, partner max 10 µM)	true
NC1(C(=O)N[C@@H](CCO)c2ccc(Cl)cc2)CCN(c2ncnc3[nH]ccc23)CC1 [Capivasertib] + COc1nnc2ccc(N3CCC(c4ccc(OCCN5CCN(C)C(=O)[C@H]5C)cc4)CC3)nn12 [AZD5153] (first compound max 10 µM, 7x7, partner max 1 µM)	false
CCN(CCO)CCCOc1ccc2c(Nc3cc(CC(=O)Nc4cccc(F)c4)[nH]n3)ncnc2c1 [AZD2811] + O=C(c1cc(Cc2n[nH]c(=O)c3ccccc23)ccc1F)N1CCN(C(=O)C2CC2)CC1 [Olaparib] (first compound max 1 µM, 7x7, partner max 10 µM)	true
Cc1c2c(nn1C)CSCc1cc(n(C)n1)CSc1cc(c3ccccc3c1)OCCCc1c(C(=O)O)n(C)c3c-2c(Cl)ccc13 [AZD5991] + Nc1ccn([C@@H]2O[C@H](CO)[C@@H](O)C2(F)F)c(=O)n1 [Gemcitabine] (first compound max 1 µM, 7x7, partner max 0.3 µM)	false
COc1cccc(OCCCN)c1-c1cc(Nc2cnc(C#N)cn2)n[nH]1 [Prexasertib] + C=CCn1c(=O)c2cnc(Nc3ccc(N4CCN(C)CC4)cc3)nc2n1-c1cccc(C(C)(C)O)n1 [AZD1775] (first compound max 1 µM, partner max 1 µM)	true

Origin of values: the supplement of paper PMC11061612
